- targetDesc: ZFP SBS#600 (synthetic)
- Sequence (chain, as listed by the source): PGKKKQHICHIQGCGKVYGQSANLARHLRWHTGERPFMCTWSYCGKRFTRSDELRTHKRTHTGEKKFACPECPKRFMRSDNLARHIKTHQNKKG
- experiment: EMSA
- experimentalSetup: tags: MBP fusion
readout: Kd (nM)
Answers are plain numbers, in nM.

What the record says about GAGTCGGAA (dsDNA) DNA 1: GAGTCGGAA DNA 2: TTCCGACTC : Kd is 207
